All values here come from patent US20210122746A1.

Target: human ProRS (prolyl tRNA synthetase moiety of glutamyl prolyl tRNA synthetase) (Homo sapiens)
Sequence (P07814 1007-1512 limits assumed): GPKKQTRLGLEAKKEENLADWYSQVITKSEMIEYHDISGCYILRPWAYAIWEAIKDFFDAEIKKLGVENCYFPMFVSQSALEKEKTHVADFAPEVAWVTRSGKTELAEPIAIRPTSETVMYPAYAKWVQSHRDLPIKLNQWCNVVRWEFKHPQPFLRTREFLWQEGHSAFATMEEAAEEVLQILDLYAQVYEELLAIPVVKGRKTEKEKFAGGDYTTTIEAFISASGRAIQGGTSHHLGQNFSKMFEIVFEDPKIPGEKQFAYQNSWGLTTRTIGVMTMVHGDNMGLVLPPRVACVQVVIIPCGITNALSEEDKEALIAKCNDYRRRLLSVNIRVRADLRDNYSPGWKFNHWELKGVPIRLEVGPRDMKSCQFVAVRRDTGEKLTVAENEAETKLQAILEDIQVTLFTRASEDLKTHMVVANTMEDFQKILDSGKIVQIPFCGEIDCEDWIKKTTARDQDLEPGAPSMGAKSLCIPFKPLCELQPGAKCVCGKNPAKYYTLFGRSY
Structures can show the parent of a compound that is named as a salt.
Experimental endpoint: IC50 (nM)
Respond with the bare value in nM.

[in] I'd like to know its IC50. The compound in question is O=c1c2nc(-c3cccnc3)ccc2ncn1C[C@@H](O)C[C@H]1NCCC[C@@H]1O [Example 29, 2,2,2-trifluoroacetate]
[out] 103

[in] Input Cc1cc(C(C)C)cc2c(=O)n(C[C@@H](O)C[C@@H]3CCCCN3)cnc12 [Example 35, hydrochloride]
[out] 1390

[in] Input O=c1c2nc(-c3cccc(C(F)(F)F)c3)ccc2ncn1C[C@@H](O)C[C@H]1NCCC[C@@H]1O [Example 23, dihydrochloride]
[out] 28

[in] Input O=c1c2cnccc2ncn1C[C@@H](O)C[C@H]1NCCC[C@@H]1O [Example 26, dihydrochloride]
[out] 80

[in] Input O=C(C[C@@H]1CCCCN1)Cn1cnc2ccncc2c1=O [Example 20]
[out] 60

[in] Input O=c1c2nc(-c3cccc(F)c3)ccc2ncn1C[C@@H](O)CC1NCCC[C@@H]1O (stereo partly shown) [Example 24, dihydrochloride]
[out] 8

----------
Target: human ProRS (prolyl tRNA synthetase moiety of glutamyl prolyl tRNA synthetase) (Homo sapiens, UniProt P07814)
Structures can show the parent of a compound that is named as a salt.
I'd be grateful if you could share measured pIC50 for these entries.
pIC50 here: minus log base 10 of the concentration, concentration in moles per litre.

[in] I'd like to know its pIC50. The molecule in question is Cc1cc(C2CC2)nc2c(=O)n(C[C@@H](O)C[C@H]3NCCC[C@@H]3O)cnc12 [Example 30, dihydrochloride]
[out] 6.37

[in] Input Cc1cc(C)c2ncn(C[C@@H](O)C[C@H]3NCCC[C@@H]3O)c(=O)c2n1 [Example 21, dihydrochloride]
[out] 6.31

[in] Input Cc1cc(-c2cccc(F)c2)cn2c(=O)c(NC(=O)C[C@H]3NCCC[C@@H]3O)cnc12 [Example 40]
[out] 5.56

[in] Input Cc1cc(Cl)cn2c(=O)c(NC(=O)C[C@H]3NCCC[C@@H]3O)cnc12.Cl [Example 39, hydrochloride]
[out] 6.52

[in] Input O=C(C[C@H]1NCCC[C@@H]1O)Cn1cnc2ccc(-c3cccnc3)nc2c1=O [Example 11, trihydrochloride]
[out] 8.05

[in] Input Cc1cc(C2CC2)nc2c(=O)n(CC(=O)C[C@H]3NCCC[C@@H]3O)cnc12 [Example 12, dihydrochloride]
[out] 7.89

[in] Input Cc1cc(Cl)cc2c(=O)n(CC(=O)CC3CCCCN3)cnc12 (centres unmarked) [Example 4, hydrochloride]
[out] 6.09

[in] Input Cc1cc(C)c2ncn(C[C@@H](O)C[C@@H]3CCCCN3)c(=O)c2n1 [Example 36, dihydrochloride]
[out] 5.66

[in] Input O=C(C[C@H]1NCCC[C@@H]1O)Cn1cnc2cccnc2c1=O [Example 2, dihydrochloride]
[out] 7.82

[in] Input Cc1cc(C(F)(F)F)nc2c(=O)n(C[C@@H](O)C[C@H]3NCCC[C@@H]3O)cnc12 [Example 31]
[out] 6.38

[in] Input O=C(C[C@H]1NCCC[C@@H]1O)Cn1cnc2ccc(-c3cccc(C(F)(F)F)c3)nc2c1=O [Example 6, dihydrochloride]
[out] 7.64

[in] Input O=C(C[C@H]1NCCC[C@@H]1O)Cn1cnc2ccc(-c3ccc(F)c(F)c3)nc2c1=O [Example 9, dihydrochloride]
[out] 8.10

[in] Input Cc1cc(-c2cccc(C(F)(F)F)c2)nc2c(=O)n(CC(=O)C[C@H]3NCCC[C@@H]3O)cnc12 [Example 15]
[out] 8.10

[in] Input O=C(C[C@H]1NCCC[C@@H]1O)Cn1cnc2ccncc2c1=O [Example 8, dihydrochloride]
[out] 7.85

[in] Input Cc1cc(-c2cccc(C(F)(F)F)c2)nc2c(=O)n(C[C@@H](O)C[C@H]3NCCC[C@@H]3O)cnc12 [Example 28, dihydrochloride]
[out] 7.57

[in] Input O=c1c2nc(-c3cccc(Cl)c3)ccc2ncn1C[C@@H](O)C[C@H]1NCCC[C@@H]1O [Example 22, dihydrochloride]
[out] 7.70

[in] Input Cc1cc(-c2cccc(Cl)c2)nc2c(=O)n(C[C@@H](O)C[C@H]3NCCC[C@@H]3O)cnc12 [Example 33, dihydrochloride]
[out] 7.64

[in] Input Cc1cc(-c2cccnc2)nc2c(=O)n(C[C@@H](O)C[C@H]3NCCC[C@@H]3O)cnc12 [Example 34, trihydrochloride]
[out] 6.54

[in] Input O=C(C[C@H]1NCCC[C@@H]1O)Cn1cnc2ccc(-c3cccc(Cl)c3)nc2c1=O [Example 5, dihydrochloride]
[out] 8.00

[in] Input O=C(C[C@H]1NCCC[C@@H]1O)Cn1cnc2ccc(-c3cccc(F)c3)nc2c1=O [Example 7, dihydrochloride]
[out] 8.30

----------
Molecular target: human ProRS (prolyl tRNA synthetase moiety of glutamyl prolyl tRNA synthetase) (Homo sapiens)
Sequence (P07814 1007-1512 limits assumed): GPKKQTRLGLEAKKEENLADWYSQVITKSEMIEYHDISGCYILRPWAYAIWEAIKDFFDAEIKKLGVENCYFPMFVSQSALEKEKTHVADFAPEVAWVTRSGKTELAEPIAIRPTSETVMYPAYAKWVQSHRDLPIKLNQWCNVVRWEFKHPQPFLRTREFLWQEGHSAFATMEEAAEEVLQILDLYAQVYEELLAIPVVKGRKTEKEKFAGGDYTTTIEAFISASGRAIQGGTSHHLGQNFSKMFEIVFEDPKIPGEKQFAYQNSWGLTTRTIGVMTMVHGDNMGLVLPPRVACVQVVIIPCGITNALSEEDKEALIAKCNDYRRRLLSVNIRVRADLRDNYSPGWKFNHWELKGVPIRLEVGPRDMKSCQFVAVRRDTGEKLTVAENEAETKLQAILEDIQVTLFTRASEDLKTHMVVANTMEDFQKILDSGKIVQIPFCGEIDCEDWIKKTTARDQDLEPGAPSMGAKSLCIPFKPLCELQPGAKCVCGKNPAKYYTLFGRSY
Counter-ions that a name gives are not always drawn.
Experimental endpoint: pIC50
pIC50 here: minus log base 10 of the concentration, concentration in moles per litre.

[in] I'd like to know its pIC50. The molecule in question is Cc1cc(Cl)cc2c(=O)n(CC(=O)CC3CCCCN3)cnc12 (stereo not shown) [Example 3, hydrochloride]
[out] 7.15

[in] Input O=c1c2cnccc2ncn1C[C@@H](O)C[C@H]1NCC[C@@H]1O [Example 38]
[out] 5.64

[in] Input Cc1cc(-c2ccc(F)c(F)c2)nc2c(=O)n(C[C@@H](O)C[C@H]3NCCC[C@@H]3O)cnc12 [Example 27, dihydrochloride]
[out] 6.76

[in] Input Cc1cc(-c2cccnc2)nc2c(=O)n(CC(=O)C[C@H]3NCCC[C@@H]3O)cnc12 [Example 17, trihydrochloride]
[out] 7.92

[in] Input Cc1cc(C(F)(F)F)cc2c(=O)n(CC(=O)C[C@@H]3CCCCN3)cnc12 [Example 19, 2,2,2-trifluoroacetate]
[out] 6.80

[in] Input Cc1cc(C)c2ncn(CC(=O)C[C@H]3NCCC[C@@H]3O)c(=O)c2n1 [Example 1, dihydrochloride]
[out] 7.55

[in] Input Cc1cc(C(F)(F)F)nc2c(=O)n(CC(=O)C[C@H]3NCCC[C@@H]3O)cnc12 [Example 13, dihydrochloride]
[out] 7.77
